The following compounds are listed with their measured solvation free energy, 298 K values.
test: solvent given as SMILES; conditions: in CCNC=O
Supply the numeric figure in kcal/mol, leaving out any unit text.

{"columns": ["Chem smiles", "Display unit", "solvation free energy, 298 K"],
 "data": [
  ["CC(C)OC(C)C", "kcal/mol", -3.23]
]}

Inquiry: Write down solvation free energy, 298 K measured for item C=CCCC
Reply text: -2.26

Inquiry: Indicate the recorded solvation free energy, 298 K value for this compound: c1ccccc1
Reply text: -3.94

Inquiry: Answer with the recorded solvation free energy, 298 K of Cc1ccccc1 only.
Reply text: -4.49

Inquiry: Dear colleague, please send me the reported solvation free energy, 298 K for ClCCl when you can.
Reply text: -3.7

Inquiry: Provide solvation free energy, 298 K value for the following compound: C1=CCCCC1
Reply text: -3.52

Inquiry: Give the measured solvation free energy, 298 K for C1CCCCC1
Reply text: -3.22
